- experiment summary: Oral pharmacokinetics in male Sprague Dawley rats, suspension in 0.5% Methylcellulose
- Assay type: in vivo
- condition details: 60 mg/Kg single oral dose, 4 h, 60 mg/kg
assay metric: Plasma concentration, Mean (ng/mL)

I = Cc1noc2c1-c1ccccc1C(c1ccc(Cl)cc1)=N[C@H]2CC(N)=O [amorphous form]
II = Cc1noc2c1-c1ccccc1C(c1ccc(Cl)cc1)=N[C@H]2CC(N)=O [monohydrate Form A]
Quick check, higher Plasma concentration, Mean between I and II ? API: response body contains the label of the selected item.
I
(I: 9860 ng/mL, II: 6070 ng/mL)

* * *

- experiment summary: Oral pharmacokinetics in male Sprague Dawley rats, suspension in 0.5% Methylcellulose
- Type: in vivo
- condition details: 60 mg/Kg single oral dose, 1 h, 60 mg/kg
assay metric: Plasma concentration, Mean (ng/mL)
Express your answer in ng/mL, writing the number without its unit.

// lookup Plasma concentration, Mean for Cc1noc2c1-c1ccccc1C(c1ccc(Cl)cc1)=N[C@H]2CC(N)=O [monohydrate Form A]
5530

* * *

- experiment summary: Oral pharmacokinetics in male Sprague Dawley rats, suspension in 0.5% Methylcellulose
- Assay type: in vivo
- condition details: 60 mg/Kg single oral dose, 2 h, 60 mg/kg
assay metric: Plasma concentration, individual rats (ng/mL)
Express your answer in ng/mL, writing the number without its unit.

// lookup Plasma concentration, individual rats for Cc1noc2c1-c1ccccc1C(c1ccc(Cl)cc1)=N[C@H]2CC(N)=O [amorphous form]
8830

* * *

- experiment summary: Oral pharmacokinetics in male Sprague Dawley rats, suspension in 0.5% Methylcellulose
- Format: in vivo
- condition details: 60 mg/Kg single oral dose, 299 s
assay metric: Plasma concentration, Mean (ng/mL)
Express your answer in ng/mL, writing the number without its unit.

// lookup Plasma concentration, Mean for Cc1noc2c1-c1ccccc1C(c1ccc(Cl)cc1)=N[C@H]2CC(N)=O [monohydrate Form A]
304

* * *

- experiment summary: Oral pharmacokinetics in male Sprague Dawley rats, suspension in 0.5% Methylcellulose
- Assay type: in vivo
- condition details: 60 mg/Kg single oral dose, 2 h, 60 mg/kg
assay metric: Plasma concentration, Mean (ng/mL)
Express your answer in ng/mL, writing the number without its unit.

// lookup Plasma concentration, Mean for Cc1noc2c1-c1ccccc1C(c1ccc(Cl)cc1)=N[C@H]2CC(N)=O [monohydrate Form A]
7200

* * *

- experiment summary: Oral pharmacokinetics in male Sprague Dawley rats, suspension in 0.5% Methylcellulose
- Type: in vivo
- condition details: 10 mg/Kg single oral dose, 2.00 h, group value
assay metric: Plasma concentration, PO1 (ng/mL)
Express your answer in ng/mL, writing the number without its unit.

// lookup Plasma concentration, PO1 for Cc1noc2c1-c1ccccc1C(c1ccc(Cl)cc1)=N[C@H]2CC(N)=O [monohydrate Form A]
1290

* * *

- experiment summary: Oral pharmacokinetics in male beagle dogs, crossover, suspension in 0.5% MC
- Assay type: in vivo
- condition details: male, beagle, dog, plasma, po, 2 mg/kg, 2 mg/Kg single oral dose, read-out: T1/2, Mean (converted)
- Description: The objective was to compare the pharmacokinetic profiles of both forms in dogs using a crossover study design in which the same dogs were dosed sequentially with amorphous and monohydrate crystalline Form A with a washout period in between.
assay metric: half-life (h)
Express your answer in h, writing the number without its unit.

// lookup half-life for Cc1noc2c1-c1ccccc1C(c1ccc(Cl)cc1)=N[C@H]2CC(N)=O [amorphous form]
8.59
